test system: A2780; test: Cytotoxicity against human A2780 cells after 72 hrs by MTT assay; assay type: functional, cell-based; conditions: A2780, 72 h
Property: IC50; scope: individual compounds

These solved cases illustrate the format of a correct answer.
CHEM_SMILES: COc1ccc(C(=O)O[C@H]2[C@H](O[C@@H]3[C@@H](OC(C)=O)[C@H](O[C@H]4C[C@H]5[C@@H]6CC=C7C[C@@H](O)CC[C@]7(C)[C@H]6CC[C@]5(C)[C@H]4[C@H](C)CCC[C@@H](C)CO)OC[C@@H]3O)OC[C@@H](O)[C@@H]2O)cc1
OBSERVABLE: IC50
OBSERVED: 6 nM
--
CHEM_SMILES: COc1ccc(C(=O)O[C@H]2[C@H](O[C@@H]3[C@@H](OC(C)=O)[C@H](O[C@H]4C=C5C[C@@H](O)CC[C@]5(C)[C@H]5CC[C@]6(C)[C@@H]([C@H](C)CCC[C@@H](C)CO)CC[C@H]6[C@H]45)OC[C@@H]3O)OC[C@@H](O)[C@@H]2O)cc1
OBSERVABLE: IC50
OBSERVED: > 10000 nM
--
CHEM_SMILES: COc1ccc(C(=O)O[C@H]2[C@H](O[C@@H]3[C@@H](OC(C)=O)[C@H](O[C@H]4C=C5C[C@@H](O)CC[C@]5(C)[C@H]5CC[C@]6(C)[C@@H]([C@H](C)CCC[C@@H](C)CO)[C@@H](O)C[C@H]6[C@H]45)OC[C@@H]3O)OC[C@@H](O)[C@@H]2O)cc1
OBSERVABLE: IC50
OBSERVED: 1900 nM

Pending compound:
Inquiry: What value of measured IC50 is listed for `COc1ccc(C(=O)O[C@H]2[C@H](O[C@H]3CO[C@@H](O[C@H]4C=C5C[C@@H](O)CC[C@]5(C)[C@H]5CC[C@]6(C)[C@@H]([C@H](C)CCC[C@@H](C)CO)[C@@H](O)C[C@H]6[C@H]45)[C@H](OC(C)=O)[C@H]3O)OC[C@@H](O)[C@@H]2O)cc1` ?
Reply text: > 10000 nM

* * *

tested on: A2780; test: Cytotoxicity against human A2780 cells after 72 hrs by MTT assay; format: functional, cell-based; details: A2780, 72 h
Property: IC50; scope: individual compounds

These solved cases illustrate the format of a correct answer.
COMPOUND: COc1ccc(C(=O)O[C@H]2[C@H](O[C@H]3CO[C@@H](O[C@H]4C=C5C[C@@H](O)CC[C@]5(C)[C@H]5CC[C@]6(C)[C@@H]([C@H](C)CCC[C@@H](C)CO)CC[C@H]6[C@H]45)[C@H](OC(C)=O)[C@H]3O)OC[C@@H](O)[C@@H]2O)cc1
OBSERVED: > 10 µM

COMPOUND: CC(=O)O[C@H]1C(=O)[C@@]2(C)[C@H]([C@H](OC(=O)c3ccccc3)[C@]3(O)C[C@H](OC(=O)[C@H](O)[C@@H](NC(=O)c4ccccc4)c4ccccc4)C(C)=C1C3(C)C)[C@]1(OC(C)=O)CO[C@@H]1C[C@@H]2O [PACLITAXEL]
OBSERVED: < 0.001 µM

Inquiry: What value of measured IC50 is listed for `COc1ccc(C(=O)O[C@H]2[C@H](O[C@H]3CO[C@@H](O[C@H]4C[C@H]5[C@@H]6CC=C7C[C@@H](O)CC[C@]7(C)[C@H]6CC[C@]5(C)[C@H]4[C@H](C)CCC[C@@H](C)CO)[C@H](OC(C)=O)[C@H]3O)OC[C@@H](O)[C@@H]2O)cc1` ?
Reply text: > 10 µM
